# systemTested: Recombinant human HDAC1 (Homo sapiens, UniProt Q13547)
# Construct: FLAG (C); made in house
# Sequence (Q13547 whole entry): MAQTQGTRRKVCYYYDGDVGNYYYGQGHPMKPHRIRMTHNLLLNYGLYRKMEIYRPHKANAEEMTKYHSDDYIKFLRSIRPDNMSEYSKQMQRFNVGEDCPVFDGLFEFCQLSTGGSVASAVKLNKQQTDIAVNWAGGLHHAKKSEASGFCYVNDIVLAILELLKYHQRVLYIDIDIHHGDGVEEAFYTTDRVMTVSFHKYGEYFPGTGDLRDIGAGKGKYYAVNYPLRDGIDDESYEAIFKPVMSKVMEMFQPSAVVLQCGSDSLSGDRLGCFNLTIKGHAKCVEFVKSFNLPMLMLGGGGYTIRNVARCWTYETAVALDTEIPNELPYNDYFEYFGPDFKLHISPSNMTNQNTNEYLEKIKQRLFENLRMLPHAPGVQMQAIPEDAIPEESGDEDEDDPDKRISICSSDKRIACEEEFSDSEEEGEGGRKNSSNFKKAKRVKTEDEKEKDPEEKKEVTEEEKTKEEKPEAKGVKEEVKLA
# protocolDescription: Human HDAC enzyme inhibitor Fluor-de-Lys assay, HDAC1
# Type: biochemical
# label = 1 if IC50 < 4 nM else 0

Field: below-cutoff. Rule: recorded IC50 strictly less than 4 nM. Subject: CCC(=O)CCCCC[C@H](NC(=O)[C@H]1CC12CCN(CC)CC2)c1ncc(-c2ccc3c(=O)n(C(C)C)ccc3c2)[nH]1
1

Field: below-cutoff. Rule: recorded IC50 strictly less than 4 nM. Subject: CCC(=O)CCCCC[C@H](NC(=O)[C@H]1CC12CCN(C)CC2)c1ncc(-c2cc3ccc(=O)n(C)c3cc2OC)o1
1

Field: below-cutoff. Rule: recorded IC50 strictly less than 4 nM. Subject: CCC(=O)CCCCC[C@H](NC(=O)[C@H]1CC12CCN(C(C)C)CC2)c1ncc(-c2cc3ccccc3nc2OC)o1
1

Field: below-cutoff. Rule: recorded IC50 strictly less than 4 nM. Subject: CCC(=O)CCCCC[C@H](NC(=O)C1CC2(CCN(C)CC2)C1)c1ncc(-c2ccc3nn(C)cc3c2)[nH]1
0

Field: below-cutoff. Rule: recorded IC50 strictly less than 4 nM. Subject: CCC(=O)CCCCC[C@H](NC(=O)C1(CC(C)C)CC2(CN(C)C2)C1)c1ncc(-c2ccc3nc(C)ccc3c2)[nH]1
0

Others:
Field: below-cutoff. Rule: recorded IC50 strictly less than 4 nM. Subject: CCC(=O)CCCCC[C@H](NC(=O)[C@H]1CC12CCN(CC)CC2)c1ncc(-c2ccc3c(ccc(=O)n3C)c2)o1
0

Field: below-cutoff. Rule: recorded IC50 strictly less than 4 nM. Subject: CCC(=O)CCCCC[C@H](NC(=O)[C@H]1CC12CCN(C)CC2)c1ncc(-c2ccc3cc(C#N)ccc3c2)[nH]1
1

* * *

Reported pIC50 by item:
# systemTested: HDAC6 (Homo sapiens, UniProt Q9UBN7)
# Sequence (Q9UBN7 whole entry): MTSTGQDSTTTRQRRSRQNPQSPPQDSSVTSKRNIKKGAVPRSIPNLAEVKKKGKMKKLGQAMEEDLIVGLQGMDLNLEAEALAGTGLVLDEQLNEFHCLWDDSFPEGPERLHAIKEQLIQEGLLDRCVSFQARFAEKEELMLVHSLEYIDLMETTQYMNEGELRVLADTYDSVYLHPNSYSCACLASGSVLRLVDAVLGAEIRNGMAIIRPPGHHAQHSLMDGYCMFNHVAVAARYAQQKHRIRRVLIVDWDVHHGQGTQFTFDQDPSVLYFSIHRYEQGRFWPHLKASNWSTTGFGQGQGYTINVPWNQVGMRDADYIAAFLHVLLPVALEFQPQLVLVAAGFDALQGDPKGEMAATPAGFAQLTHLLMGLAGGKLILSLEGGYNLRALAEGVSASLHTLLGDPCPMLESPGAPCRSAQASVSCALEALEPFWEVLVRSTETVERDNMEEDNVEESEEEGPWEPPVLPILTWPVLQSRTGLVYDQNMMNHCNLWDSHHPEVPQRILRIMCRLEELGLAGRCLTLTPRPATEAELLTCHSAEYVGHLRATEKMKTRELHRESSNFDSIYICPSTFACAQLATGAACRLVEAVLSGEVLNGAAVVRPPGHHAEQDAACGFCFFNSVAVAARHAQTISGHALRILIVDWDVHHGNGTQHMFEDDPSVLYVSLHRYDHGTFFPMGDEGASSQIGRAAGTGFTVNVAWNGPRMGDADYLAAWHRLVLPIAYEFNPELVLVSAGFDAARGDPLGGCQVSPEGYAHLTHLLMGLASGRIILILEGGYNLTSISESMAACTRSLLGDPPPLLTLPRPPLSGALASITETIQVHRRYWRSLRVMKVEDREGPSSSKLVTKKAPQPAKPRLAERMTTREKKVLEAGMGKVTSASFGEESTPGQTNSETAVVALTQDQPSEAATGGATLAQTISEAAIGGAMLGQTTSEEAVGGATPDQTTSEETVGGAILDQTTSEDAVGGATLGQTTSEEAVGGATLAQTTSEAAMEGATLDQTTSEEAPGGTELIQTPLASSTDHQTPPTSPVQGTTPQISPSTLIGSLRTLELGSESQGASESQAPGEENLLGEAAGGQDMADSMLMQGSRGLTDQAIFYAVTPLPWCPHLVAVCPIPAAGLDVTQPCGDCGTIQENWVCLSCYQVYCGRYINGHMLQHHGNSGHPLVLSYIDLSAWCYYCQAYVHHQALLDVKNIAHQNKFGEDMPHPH
# protocolDescription: Human HDAC enzyme inhibitor Fluor-de-Lys assay, HDAC6
# Type: biochemical
The quantity pIC50 is defined as the negative base-10 logarithm of the molar concentration.

Quick check: pIC50 of CCC(=O)CCCCC[C@H](NC(=O)C1CC12CCC(N(C)C)CC2)c1ncc(-c2cc3ccccc3nc2OC)[nH]1 (single isomer, unassigned) [Compound 127] ?
6.44

Others:
Quick check: pIC50 of CCC(=O)CCCCC[C@H](NC(=O)[C@H]1CC12CCN(C)CC2)c1ncc(-c2ccc(C3CC3)nc2)[nH]1 ?
5.35

Quick check: pIC50 of CCC(=O)CCCCC[C@H](NC(=O)[C@H]1CC12CCN(C(C)C)CC2)c1ncc(-c2ccc3nc(C4CC4)ccc3c2)o1 ?
5.33

* * *

# systemTested: Recombinant human HDAC2 (Homo sapiens, UniProt Q92769)
# Construct: Full length human HDAC2-FLAG was expressed in baculovirus infected Sf9 cells; FLAG (C); made in house; host or cells: Sf9 (baculovirus)
# Sequence (Q92769 whole entry): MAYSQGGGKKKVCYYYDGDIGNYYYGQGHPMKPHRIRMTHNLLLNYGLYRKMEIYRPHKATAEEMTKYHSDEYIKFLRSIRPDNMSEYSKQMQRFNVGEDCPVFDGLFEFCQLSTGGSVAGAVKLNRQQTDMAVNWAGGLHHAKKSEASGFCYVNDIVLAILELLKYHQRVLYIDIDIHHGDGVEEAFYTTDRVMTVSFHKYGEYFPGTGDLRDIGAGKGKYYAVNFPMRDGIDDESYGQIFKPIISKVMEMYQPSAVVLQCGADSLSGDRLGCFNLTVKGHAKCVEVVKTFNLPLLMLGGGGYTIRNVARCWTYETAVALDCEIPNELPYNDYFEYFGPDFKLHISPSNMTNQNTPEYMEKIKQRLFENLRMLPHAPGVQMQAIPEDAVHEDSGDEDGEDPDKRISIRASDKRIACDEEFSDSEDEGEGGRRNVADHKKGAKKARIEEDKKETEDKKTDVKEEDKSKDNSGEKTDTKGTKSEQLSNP
# protocolDescription: Human HDAC enzyme inhibitor Fluor-de-Lys assay, HDAC2
# Type: biochemical
pIC50: −log10 of the molar value.
# label = 1.0 if pIC50 >= 8 else 0.0

Answer whether pIC50 of CCC(=O)CCCCC[C@H](NC(=O)C1=NOC2(CCN(C)CC2)C1)c1ncc(-c2cc3ccc(C)nc3cc2F)o1 is greater than or equal to 8.
0.0

Answer whether pIC50 of CCC(=O)CCCCC[C@H](NC(=O)[C@H]1CC12CCN(C)CC2)c1ncc(-c2coc3ccccc3c2=O)[nH]1 is greater than or equal to 8.
0.0

Answer whether pIC50 of CCC(=O)CCCCC[C@H](NC(=O)[C@H]1CC12CCN(C)CC2)c1ncc(-c2ccc3nc(C4CC4)ccc3c2)o1 is greater than or equal to 8.
1.0

Answer whether pIC50 of CCC(=O)CCCCC[C@H](NC(=O)[C@H]1CC12CCN(C)CC2)c1nnc(-c2cc3ccc(C)nc3cc2OC)o1 is greater than or equal to 8.
1.0

Answer whether pIC50 of CCC(=O)CCCCC[C@H](NC(=O)[C@H]1CC12CCN(C)CC2)c1ncc(-c2ccc3nc(C)cc(Cl)c3c2)[nH]1 is greater than or equal to 8.
1.0

Answer whether pIC50 of CCC(=O)CCCCC[C@H](NC(=O)[C@H]1CC12CCN(CC)CC2)c1ncc(-c2ccc3c(ccc(=O)n3C)c2)o1 is greater than or equal to 8.
0.0

Answer whether pIC50 of CCC(=O)CCCCC[C@H](NC(=O)[C@H]1CC12CCN(CC1CC1)CC2)c1ncc(-c2ccc3nc(C4CC4)ccc3c2)o1 is greater than or equal to 8.
1.0

Answer whether pIC50 of CCC(=O)CCCCC[C@H](NC(=O)[C@H]1CC[C@]2(CC1)OC(=O)c1ncccc12)c1ncc(-c2ccc3nc(C4CC4)ccc3c2)o1 is greater than or equal to 8.
0.0

Answer whether pIC50 of CCC(=O)CCCCC[C@H](NC(=O)[C@H]1CC12CCN(CC1CC1)CC2)c1ncc(-c2ccc3nc(C4CC4)ccc3c2)[nH]1 is greater than or equal to 8.
1.0

Answer whether pIC50 of CCC(=O)CCCCC[C@H](NC(=O)[C@H]1CC12CCN(C)CC2)c1ncc(-c2ccc3cc(C#N)ccc3c2)[nH]1 is greater than or equal to 8.
1.0

Answer whether pIC50 of CCC(=O)CCCCC[C@H](NC(=O)[C@H]1CC12CCN(C(C)C)CC2)c1ncc(-c2ccc3c(ccc(=O)n3C)c2)o1 is greater than or equal to 8.
0.0

Answer whether pIC50 of CCC(=O)CCCCC[C@H](NC(=O)[C@@]1(C)CC12CCN(C(C)C)CC2)c1ncc(-c2ccc3nc(C)ccc3c2)[nH]1 (single isomer, unassigned) is greater than or equal to 8.
0.0

* * *

# systemTested: HDAC6 (Homo sapiens, UniProt Q9UBN7)
# protocolDescription: Human HDAC enzyme inhibitor Fluor-de-Lys assay, HDAC6
# Format: biochemical
# conditionNotes: HDAC6, Fluor-de-Lys assay
Reported log10 IC50 by item:
Note: values are log10 of IC50 expressed in nM.

Below, 5 molecules whose answers are already recorded.
Quick check: log10 IC50 of CCC(=O)CCCCC[C@H](NC(=O)[C@H]1CC12CCN(CC1CC1)CC2)c1ncc(-c2cc3ccc(C)nc3cc2OC)o1 ?
2.05

Quick check: log10 IC50 of CCC(=O)CCCCC[C@H](NC(=O)CC1CC2(C1)CN(C(C)C)C2)c1ncc(-c2cc3ccccc3nc2OC)[nH]1 ?
2.60

Quick check: log10 IC50 of CCC(=O)CCCCC[C@H](NC(=O)[C@H]1CC12CCN(C)CC2)c1ncc(-c2cn(C)c3ccccc23)[nH]1 ?
3.23

Quick check: log10 IC50 of CCC(=O)CCCCC[C@H](NC(=O)[C@H]1CC12CCN(C)CC2)c1ncc(-c2ccn3ncnc3c2)[nH]1 ?
3.80

Quick check: log10 IC50 of CCC(=O)CCCCC[C@H](NC(=O)[C@@H]1CC12CN(C)C2)c1ncc(-c2cc3ccc(C)nc3cc2OC)o1 (single isomer, unassigned) ?
2.34

Others:
Quick check: log10 IC50 of CCC(=O)CCCCC[C@H](NC(=O)C1CCC2(CC1)CN(CC)C2)c1ncc(-c2cc3ccccc3nc2OC)[nH]1 ?
2.67

Quick check: log10 IC50 of CCC(=O)CCCCCC(NC(=O)C1CCC2(CC1)OC(=O)c1ncccc12)c1nnc(-c2cc3ccccc3nc2OC)o1 (centres unmarked) ?
3.29

Quick check: log10 IC50 of CCC(=O)CCCCC[C@H](NC(=O)[C@@H]1CC12CCCN(C)C2)c1ncc(-c2cc3ccccc3nc2OC)[nH]1 (some centres unmarked) ?
2.41

Quick check: log10 IC50 of CCC(=O)CCCCC[C@H](NC(=O)[C@H]1CC[C@@]2(CC1)OC(=O)c1ccncc12)c1ncc(-c2ccccc2)[nH]1 ?
4.01

* * *

Reported pIC50 by item:
# systemTested: Recombinant human HDAC2 (Homo sapiens)
# Construct: Full length human HDAC2-FLAG was expressed in baculovirus infected Sf9 cells; FLAG (C); made in house; host or cells: Sf9 (baculovirus)
# protocolDescription: Human HDAC enzyme inhibitor Fluor-de-Lys assay, HDAC2
# Type: biochemical
The quantity pIC50 is defined as the negative base-10 logarithm of the molar concentration.

Quick check: pIC50 of CCC(=O)CCCCC[C@H](NC(=O)[C@H]1CC12CCN(C)CC2)c1ncc(-c2ccc3nc(C)ccc3c2)o1 [Compound 80] ?
7.83

Quick check: pIC50 of CC(O)C(=O)CCCCC[C@H](NC(=O)[C@H]1CC12CCN(C)CC2)c1nc(-c2ccc(F)cc2)c[nH]1 (stereo partly shown) [Compound 134] ?
7.29

Quick check: pIC50 of CCC(=O)CCCCC[C@H](NC(=O)[C@H]1CC12CCN(C)CC2)c1ncc(-c2ccc(C3CC3)nc2)[nH]1 [Compound 139] ?
7.58

Turning to the following molecule.
Quick check: pIC50 of CCC(=O)CCCCC[C@H](NC(=O)[C@H]1CC12CCN(C)CC2)c1ncc(-c2ccc3nc(C4CC4)sc3c2)[nH]1 [Compound 146] ?
8.48
